B1: library; numbered along this chain (parent)
chain: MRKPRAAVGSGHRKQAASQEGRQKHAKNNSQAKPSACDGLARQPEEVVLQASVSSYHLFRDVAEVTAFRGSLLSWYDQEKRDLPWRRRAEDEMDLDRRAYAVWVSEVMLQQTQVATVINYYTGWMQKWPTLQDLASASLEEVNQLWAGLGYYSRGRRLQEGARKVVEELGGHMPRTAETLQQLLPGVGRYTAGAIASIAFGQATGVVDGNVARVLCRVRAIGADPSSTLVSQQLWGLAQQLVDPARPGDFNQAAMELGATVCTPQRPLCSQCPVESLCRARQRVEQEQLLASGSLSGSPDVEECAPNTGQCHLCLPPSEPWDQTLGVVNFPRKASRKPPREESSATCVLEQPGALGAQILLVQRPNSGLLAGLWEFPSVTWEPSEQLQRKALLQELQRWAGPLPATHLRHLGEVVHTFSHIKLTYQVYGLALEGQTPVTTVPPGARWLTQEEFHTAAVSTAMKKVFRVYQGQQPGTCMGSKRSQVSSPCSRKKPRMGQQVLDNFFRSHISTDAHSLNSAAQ

- Variants of: B1
- ASSAY_PROCEDURE: 8OG:A repair function score (normalized; synonymous = 0, nonsense = -1) (normalized log-likelihood score); higher = more repair activity (WT-like);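 further: cells sorted at 72 h after reporter transfection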
- STATED_CONDITIONS: with 8OG:A DNA repair reporter (GFP) in HEK-293 MUTYH KO cells
PARAMETER: 8OG:A repair function score

1. Q233Y	0.0243
2. Q126F	0.0114
3. V53I	-0.0188
4. A223G	-0.111
5. S459H	-0.136
6. L215E	-0.98
7. L411K	-0.505
8. F466Y	0.00857
9. R281L	-0.166
10. S292F	-0.0271
11. G188C	-0.839
12. H172G	-0.216
13. L72C	-0.229
14. D249H	-0.28
15. G258Q	-1.21
16. P174V	-0.797
17. D502F	-0.0425
18. P44Q	-0.113
19. S270K	-0.0187
20. C262K	-1.3
21. Y152L	-0.707
22. H416D	-0.403
